Target: VIM-1 (Pseudomonas aeruginosa, UniProt A0A0F7KYQ8)
Experiment: In vitro enzyme inhibition assay, purified VIM-1 (imipenem hydrolysis, UV 299 nm)
Type: biochemical
Details: comparative study bands; read-out: Ki VIM-1 (comparative study)
pKi: −log10 of the molar value.
observation type: pKi

Fill in the blank: the reported pKi of N=C(N)NCC(=O)Nc1ccc(S(=O)(=O)Nc2scnc2C(=O)O)cc1 is ____. 6.52 to 6.82

Form field: reported pKi of NNC(=O)Nc1ccc(S(=O)(=O)Nc2scnc2C(=O)O)cc1F [Comp. I, reference compound] 6.00 to 6.30

Which pKi value belongs to N=C(N)NCC(=O)Nc1ccc(S(=O)(=O)Nc2scnc2C(=O)O)cc1OC(F)(F)F ? > 6.82

State the recorded pKi for this entry: N=C(N)NNC(=O)Nc1ccc(S(=O)(=O)Nc2scnc2C(=O)O)cc1F 6.52 to 6.82

Which pKi is reported for this compound? NCC(=O)Nc1ccc(S(=O)(=O)Nc2scnc2C(=O)O)cc1 [Comp. H, reference compound] 6.00 to 6.30

Recorded pKi of NCC(=O)Nc1ccc(S(=O)(=O)Nc2scnc2C(=O)O)cc1OC(F)(F)F [Comp. G, reference compound] , please. 6.30 to 6.52

I have this compound here, COc1cc(S(=O)(=O)Nc2scnc2C(=O)O)ccc1NC(=O)CNC(=N)N , and I need its recorded pKi. > 6.82

# pKi lookup, item N=C(N)NCC(=O)Nc1c(F)cc(S(=O)(=O)Nc2scnc2C(=O)O)cc1F 6.30 to 6.52

###

Assignment: determine reported Ki for the given compounds.
Biological target: VIM-1 (Pseudomonas aeruginosa)
Assay: In vitro enzyme inhibition assay, purified VIM-1 (imipenem hydrolysis, UV 299 nm)
Type: biochemical
Conditions: comparative study bands; read-out: Ki VIM-1 (comparative study)

Requested read-out: Ki. Entry: N=C(N)NCC(=O)Nc1ncc(S(=O)(=O)Nc2scnc2C(=O)O)cc1F 300 to 500 nM

Quick one: Ki of N#Cc1cc(S(=O)(=O)Nc2scnc2C(=O)O)ccc1NC(=O)CNC(=N)N ? 150 to 300 nM

Fill in: Ki of N#Cc1cc(S(=O)(=O)Nc2scnc2C(=O)O)ccc1NC(=O)CN [Comp. F, reference compound] is ___ 150 to 300 nM

Could you share which Ki value was measured for N#Cc1cc(S(=O)(=O)Nc2scnc2C(=O)O)ccc1NC(=O)CN [Comp. D, reference compound] ? 500 to 1000 nM

###

Molecular target: VIM-2 (Escherichia coli)
Experiment: In vitro enzyme inhibition assay, purified VIM-2 (imipenem hydrolysis, UV 299 nm)
Type: biochemical
Details: mean Ki from multiple experiments; imipenem 300 μM; Cheng-Prusoff from IC50; read-out: Ki VIM-2
observation type: Ki

Which Ki is listed for N=C(N)Nc1ccc(S(=O)(=O)Nc2scnc2C(=O)O)cc1 ? 50 to 150 nM

Record request: Ki value, item COc1cc(S(=O)(=O)Nc2scnc2C(=O)O)ccc1NC(=O)CNC(=N)N < 20 nM

Using the record for N=C(N)NCC(=O)Nc1ccc(S(=O)(=O)Nc2scnc2C(=O)O)cc1OC(F)(F)F , report its Ki. < 20 nM

What Ki value was documented for this molecule, N=C(N)NCCOC(=O)Nc1ccc(S(=O)(=O)Nc2scnc2C(=O)O)cc1F ? < 20 nM

Any idea what Ki was measured for N=C(N)NCC(=O)Nc1ccc(S(=O)(=O)Nc2scnc2C(=O)O)cc1F ? 50 to 150 nM

# input molecule: N=C(N)NNCC(=O)Nc1ccc(S(=O)(=O)Nc2scnc2C(=O)O)cc1F ; wanted: its Ki 20 to 50 nM

What Ki value was documented for this molecule, N=C(N)NCC(=O)Nc1ncc(S(=O)(=O)Nc2scnc2C(=O)O)s1 ? 20 to 50 nM

Can you share its Ki? I mean this molecule: N#CNC(=N)NCC(=O)Nc1ccc(S(=O)(=O)Nc2scnc2C(=O)O)cc1F 20 to 50 nM

Name the reported Ki value associated with the molecule O=C(CCC1=NCCN1)Nc1ccc(S(=O)(=O)Nc2scnc2C(=O)O)cc1F 50 to 150 nM

Recorded Ki for N=C(N)NCC(=O)Nc1ncc(S(=O)(=O)Nc2scnc2C(=O)O)cc1F , please? 20 to 50 nM

###

Biological target: VIM-2 (Escherichia coli, UniProt Q5U7L7)
Assay: In vitro enzyme inhibition assay, purified VIM-2 (imipenem hydrolysis, UV 299 nm)
Format: biochemical
Settings: comparative study bands; read-out: Ki VIM-2 (comparative study)
pKi: −log10 of the molar value.
observation type: pKi

Data request, read-out pKi, for N=C(N)NCC(=O)Nc1ccc(S(=O)(=O)Nc2scnc2C(=O)O)cc1Cl > 7.70

// pKi lookup, key: NCC(=O)Nc1ccc(S(=O)(=O)Nc2scnc2C(=O)O)cc1 [Comp. H, reference compound] 7.30 to 7.70

Given N=C(N)NNC(=O)Nc1ccc(S(=O)(=O)Nc2scnc2C(=O)O)cc1F , state its recorded pKi. 7.30 to 7.70

Need pKi, item N=C(N)NCC(=O)Nc1c(F)cc(S(=O)(=O)Nc2scnc2C(=O)O)cc1F 7.00 to 7.30

Need pKi of COc1cc(S(=O)(=O)Nc2scnc2C(=O)O)ccc1NC(=O)CNC(=N)N , thanks. > 7.70

Which pKi is listed for N#Cc1cc(S(=O)(=O)Nc2scnc2C(=O)O)ccc1NC(=O)CNC(=N)N ? 7.30 to 7.70

Would you mind telling me what pKi value was observed for NCC(=O)Nc1c(F)cc(S(=O)(=O)Nc2scnc2C(=O)O)cc1F [Comp. B, reference compound] ? 6.82 to 7.00

Could you share which pKi value was measured for N=C(N)NCC(=O)Nc1ncc(S(=O)(=O)Nc2scnc2C(=O)O)cc1F ? 7.30 to 7.70

###

Target: NDM-1 (Klebsiella pneumoniae)
Sequence (C7C422 29-270, looked up): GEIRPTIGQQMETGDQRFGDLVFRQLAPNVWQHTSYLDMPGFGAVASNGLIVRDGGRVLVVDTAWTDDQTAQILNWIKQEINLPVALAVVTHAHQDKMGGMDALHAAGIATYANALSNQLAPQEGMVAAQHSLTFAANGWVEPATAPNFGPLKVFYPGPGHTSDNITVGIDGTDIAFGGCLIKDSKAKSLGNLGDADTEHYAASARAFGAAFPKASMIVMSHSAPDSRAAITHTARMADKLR
Assay: In vitro enzyme inhibition assay, purified NDM-1 (imipenem hydrolysis, UV 299 nm)
Type: biochemical
Details: comparative study bands; read-out: Ki NDM-1 (comparative study)
observation type: Ki

Entry under review: N=C(N)NCC(=O)Nc1ccc(S(=O)(=O)Nc2scnc2C(=O)O)cc1 . Reported Ki? 100 to 300 nM

Find the recorded Ki belonging to N=C(N)NCC(=O)Nc1ccc(S(=O)(=O)Nc2scnc2C(=O)O)cc1OC(F)(F)F and report it. 30 to 100 nM

I would be grateful if you could share the reported Ki for NCC(=O)Nc1ccc(S(=O)(=O)Nc2scnc2C(=O)O)cc1 [Comp. H, reference compound] . 100 to 300 nM

Endpoint output: Ki of N=C(N)NCC(=O)Nc1ncc(S(=O)(=O)Nc2scnc2C(=O)O)cc1F . Value? 100 to 300 nM

// Ki lookup, key: N#Cc1cc(S(=O)(=O)Nc2scnc2C(=O)O)ccc1NC(=O)CNC(=N)N 30 to 100 nM

Quick check: Ki of NCC(=O)Nc1ncc(S(=O)(=O)Nc2scnc2C(=O)O)cc1F [Comp. C, reference compound] ? 100 to 300 nM

# input molecule: COc1cc(S(=O)(=O)Nc2scnc2C(=O)O)ccc1NC(=O)CN [Comp. E, reference compound] ; wanted: its Ki 100 to 300 nM

###

Molecular target: IMP-1 (Serratia marcescens)
Sequence (P52699 19-246, looked up, species assumed): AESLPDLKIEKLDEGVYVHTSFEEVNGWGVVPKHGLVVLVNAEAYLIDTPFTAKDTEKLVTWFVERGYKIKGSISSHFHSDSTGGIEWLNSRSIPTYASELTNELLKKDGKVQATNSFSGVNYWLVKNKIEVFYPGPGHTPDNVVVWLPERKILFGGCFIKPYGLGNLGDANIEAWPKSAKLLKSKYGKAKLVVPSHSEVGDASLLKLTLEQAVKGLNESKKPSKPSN
Experiment: In vitro enzyme inhibition assay, purified IMP-1 (imipenem hydrolysis, UV 299 nm)
Format: biochemical
Conditions: mean Ki from multiple experiments; imipenem 300 μM; Cheng-Prusoff from IC50; read-out: Ki IMP-1
pKi: −log10 of the molar value.
Please provide measured pKi for the entries that follow.

Need pKi, item N=C(N)NCC(=O)Nc1ccc(S(=O)(=O)Nc2scnc2C(=O)O)nn1 [Example 14] 5.00 to 6.00

So what's the measured pKi for this one? N#CNC(=N)NCC(=O)Nc1ccc(S(=O)(=O)Nc2scnc2C(=O)O)cc1F [Example 34] > 6.30

Please look up its pKi: N=C(N)CNC(=O)Cc1ccc(S(=O)(=O)Nc2scnc2C(=O)O)cc1F [Example 25] 6.00 to 6.30

# input compound: N#Cc1cc(S(=O)(=O)Nc2scnc2C(=O)O)ccc1NC(=O)CNC(=N)N [Example 5] ; wanted: its pKi > 6.30

Need pKi of N=C(N)NC(=O)Nc1ccc(S(=O)(=O)Nc2scnc2C(=O)O)cc1F [Example 28] , thanks. > 6.30

Quick one: pKi of N=C(NCCN)NCC(=O)Nc1ccc(S(=O)(=O)Nc2scnc2C(=O)O)cc1F [Example 39] ? 5.00 to 6.00

Recorded pKi of N=C(N)NCC(=O)Nc1ccc(S(=O)(=O)Nc2scnc2C(=O)O)cc1C(N)=O [Example 6] , please. 5.00 to 6.00

pKi lookup needed for N=C(N)NCC(=O)Nc1c(F)cc(S(=O)(=O)Nc2scnc2C(=O)O)cc1F [Example 2] , thanks. 5.00 to 6.00

Name the recorded pKi for N=C(N)CC(=O)Nc1c(F)cc(S(=O)(=O)Nc2scnc2C(=O)O)cc1F [Example 13] . 6.00 to 6.30

Which pKi reading was recorded for the compound N=C(NCC(=O)Nc1ccc(S(=O)(=O)Nc2scnc2C(=O)O)cc1F)N1CCOCC1 [Example 33] ? 5.00 to 6.00

Could you share which pKi value was measured for N=C(N)NNC(=O)Nc1c(F)cc(S(=O)(=O)Nc2scnc2C(=O)O)cc1F [Example 26] ? 5.00 to 6.00

Look at this compound and give its reported pKi. O=C(CC1=NCCN1)Nc1ccc(S(=O)(=O)Nc2scnc2C(=O)O)cc1F [Example 21] 6.00 to 6.30

Return reported pKi; argument: N=C1NCCN1CC(=O)Nc1ccc(S(=O)(=O)Nc2scnc2C(=O)O)cc1F [Example 38] 5.00 to 6.00

Return reported pKi; argument: COc1cc(S(=O)(=O)Nc2scnc2C(=O)O)ccc1NC(=O)CNC(=N)N [Example 16] 6.00 to 6.30

Can you look up the measured pKi of N=C(N)NCCC(=O)Nc1ccc(S(=O)(=O)Nc2scnc2C(=O)O)cc1F [Example 19] for me? 5.00 to 6.00

Requested read-out: pKi. Entry: N=C(N)CNC(=O)Nc1ccc(S(=O)(=O)Nc2scnc2C(=O)O)cc1F [Example 30] 5.00 to 6.00

Item under review: N=C(N)NCC(=O)NCc1ccc(S(=O)(=O)Nc2scnc2C(=O)O)cc1F [Example 45] . Reported pKi? 5.00 to 6.00

Return reported pKi; argument: N=C(N)CCC(=O)Nc1ccc(S(=O)(=O)Nc2scnc2C(=O)O)cc1F [Example 35] 6.00 to 6.30

Sample N=C(N)NCC(=O)Nc1ccc(S(=O)(=O)Nc2scnc2C(=O)O)cc1Cl [Example 17] — what was its pKi? > 6.30

Item CN(CC(=O)Nc1ccc(S(=O)(=O)Nc2scnc2C(=O)O)cc1F)C(=N)N [Example 8] has what recorded pKi? 5.00 to 6.00

Value lookup for pKi; key = N=C(N)NNC(=O)Nc1ccc(S(=O)(=O)Nc2scnc2C(=O)O)cc1F [Example 29] 5.00 to 6.00

Need pKi, item N=C(N)NCC(=O)Nc1ccc(S(=O)(=O)Nc2scnc2C(=O)O)cc1F [Example 7] 5.00 to 6.00

Quick one: pKi for N=C(N)NNCC(=O)Nc1ccc(S(=O)(=O)Nc2scnc2C(=O)O)cc1F [Example 41] ? 6.00 to 6.30

Returns the measured pKi for the input compound. Input: N=C(N)NCCOC(=O)Nc1ccc(S(=O)(=O)Nc2scnc2C(=O)O)cc1F [Example 27] 6.00 to 6.30

So what does the record say about pKi for N=C(N)N/N=C/C(=O)Nc1ccc(S(=O)(=O)Nc2scnc2C(=O)O)cc1F [Example 43] ? > 6.30

Requested field: pKi. Item: C[C@@H](NC(=N)N)C(=O)Nc1ccc(S(=O)(=O)Nc2scnc2C(=O)O)cc1 [Example 11] 5.00 to 6.00

Endpoint output: pKi of N=C(N)Nc1ccc(S(=O)(=O)Nc2scnc2C(=O)O)cc1 [Example 44] . Value? 5.00 to 6.00

Give the measured pKi of N=C(N)NCC(=O)Nc1cc(F)c(S(=O)(=O)Nc2scnc2C(=O)O)cc1F [Example 9] . 5.00 to 6.00

I'd like to know its pKi. The compound in question is N=C(N)CC(=O)Nc1ccc(S(=O)(=O)Nc2scnc2C(=O)O)cc1F [Example 4] 5.00 to 6.00

What value of pKi has been recorded for this entry: O=C(CCC1=NCCN1)Nc1ccc(S(=O)(=O)Nc2scnc2C(=O)O)cc1F [Example 36] 5.00 to 6.00
